test: Metabolic stability in human liver microsomes assessed as compound remaining at 200 uM incubated for 3 mins prior to NADPH-addition measured after 3 hrs by RP-HPLC analysis; assay type: ADME, Microsome; details: read-out: Stability
Measurement Label: remaining at 3 h, 200 µM (%)
Write the number in % without appending the unit.

Look up remaining at 3 h, 200 µM: "O=C(O)/C(O)=C/C(=O)c1cc(Cc2ccc(F)cc2F)cn(Cc2ccccc2F)c1=O" 80

----------
experiment: Cytotoxicity against human MAGI cells by MTS assay; type: cell-based
Measurement Label: CC50 (µM)
Write the number in µM without appending the unit.

Look up CC50: "CC(C)OC(=O)/C(O)=C/C(=O)c1cc(Cc2ccc(F)cc2F)cn(Cc2ccccc2F)c1=O" 135

The reported numbers originate from ChEMBL document CHEMBL2040715.
